# subject of test: Protein kinase C beta type (Homo sapiens, UniProt P05771)
# Sequence (P05771 whole entry): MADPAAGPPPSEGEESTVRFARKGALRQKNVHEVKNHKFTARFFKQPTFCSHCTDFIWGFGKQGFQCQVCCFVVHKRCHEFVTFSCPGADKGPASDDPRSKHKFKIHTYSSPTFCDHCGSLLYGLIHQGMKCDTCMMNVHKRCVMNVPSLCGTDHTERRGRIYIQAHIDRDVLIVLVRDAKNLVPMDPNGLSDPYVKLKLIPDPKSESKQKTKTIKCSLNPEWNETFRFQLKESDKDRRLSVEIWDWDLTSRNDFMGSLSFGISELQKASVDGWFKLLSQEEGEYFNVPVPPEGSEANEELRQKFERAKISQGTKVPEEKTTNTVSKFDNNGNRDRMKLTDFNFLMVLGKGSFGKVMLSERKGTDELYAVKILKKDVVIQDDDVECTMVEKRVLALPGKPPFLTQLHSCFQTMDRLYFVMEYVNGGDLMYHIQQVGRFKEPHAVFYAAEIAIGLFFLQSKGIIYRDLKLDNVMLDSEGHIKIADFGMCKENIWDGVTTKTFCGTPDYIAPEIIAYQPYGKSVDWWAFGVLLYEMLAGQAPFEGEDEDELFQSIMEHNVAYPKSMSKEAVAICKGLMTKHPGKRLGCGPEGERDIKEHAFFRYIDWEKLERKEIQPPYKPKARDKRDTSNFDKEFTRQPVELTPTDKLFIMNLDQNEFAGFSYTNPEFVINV
# assay name: Inhibition of human Protein kinase C beta 1 using [gamma-33P]-ATP

smiles str	IC50 (nM)
CN(C)CCCn1nc(C2=C(c3cn(-c4cccnc4)c4ccccc34)C(=O)NC2=O)c2ccccc21	19
O=C1NC(=O)C(c2nn(CCCN3CCOCC3)c3ccccc23)=C1c1cn(-c2ccc3ccccc3c2)c2ccccc12	190
CN(C)CCCn1nc(C2=C(c3cn(-c4cccc5ccccc45)c4ccccc34)C(=O)NC2=O)c2ccccc21	87
CN(C)CCCn1nc(C2=C(c3cn(-c4ccc5ccccc5c4)c4ccccc34)C(=O)NC2=O)c2ccccc21	33
CN(C)CCCn1nc(C2=C(c3cn(-c4cncc5ccccc45)c4ccccc34)C(=O)NC2=O)c2ccccc21	92
O=C1NC(=O)C(c2cn(-c3cccnc3)c3ccccc23)=C1c1[nH]nc2ccccc12	460
CN(C)CCCn1nc(C2=C(c3cn(-c4cnc5ccccc5c4)c4ccccc34)C(=O)NC2=O)c2ccccc21	7
CN(C)CCCn1nc(C2=C(c3cn(-c4ccccc4)c4ccccc34)C(=O)NC2=O)c2ccccc21	46

Reference source for all entries: ChEMBL document CHEMBL1142718
